- Test system: CYP3A4/5
- Test Description: in vitro
- Study Conditions: human, microsomes, pH 7.4
pIC50: −log10 of the molar value.
Measure: pIC50

Exercise: For CYP3A4/5, provide pIC50 of COc1ccc(OC)c(C(=O)/C=C/c2ccc3nccnc3c2)c1 please.
Solution: < 4.00

---

- System Under Test: CYP1A2 (Homo sapiens)
- Sequence (P05177 whole entry): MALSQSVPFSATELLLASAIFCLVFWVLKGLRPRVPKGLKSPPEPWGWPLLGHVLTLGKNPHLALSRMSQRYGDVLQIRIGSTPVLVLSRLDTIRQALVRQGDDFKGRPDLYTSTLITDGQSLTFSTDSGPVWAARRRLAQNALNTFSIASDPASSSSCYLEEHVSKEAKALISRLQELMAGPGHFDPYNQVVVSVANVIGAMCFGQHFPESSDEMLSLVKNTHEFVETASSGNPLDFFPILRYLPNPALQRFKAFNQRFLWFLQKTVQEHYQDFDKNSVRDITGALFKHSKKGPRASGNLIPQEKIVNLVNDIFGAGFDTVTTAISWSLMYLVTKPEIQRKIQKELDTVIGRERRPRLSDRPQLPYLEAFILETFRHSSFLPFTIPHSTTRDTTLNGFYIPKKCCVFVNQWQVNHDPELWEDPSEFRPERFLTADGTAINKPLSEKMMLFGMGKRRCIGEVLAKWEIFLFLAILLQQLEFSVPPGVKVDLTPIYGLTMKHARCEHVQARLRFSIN
Measure: pIC50
Give bare numbers, as −log10 of the molar value.

Exercise: Bench note: what pIC50 did COc1ccc(OC)c(C(=O)/C=C/c2ccc3nccnc3c2)c1 show?
Solution: 5.70
